// values below are IC50; system is Tyrosine-protein kinase BTK (Homo sapiens, UniProt Q06187)
Sequence (Q06187 whole entry): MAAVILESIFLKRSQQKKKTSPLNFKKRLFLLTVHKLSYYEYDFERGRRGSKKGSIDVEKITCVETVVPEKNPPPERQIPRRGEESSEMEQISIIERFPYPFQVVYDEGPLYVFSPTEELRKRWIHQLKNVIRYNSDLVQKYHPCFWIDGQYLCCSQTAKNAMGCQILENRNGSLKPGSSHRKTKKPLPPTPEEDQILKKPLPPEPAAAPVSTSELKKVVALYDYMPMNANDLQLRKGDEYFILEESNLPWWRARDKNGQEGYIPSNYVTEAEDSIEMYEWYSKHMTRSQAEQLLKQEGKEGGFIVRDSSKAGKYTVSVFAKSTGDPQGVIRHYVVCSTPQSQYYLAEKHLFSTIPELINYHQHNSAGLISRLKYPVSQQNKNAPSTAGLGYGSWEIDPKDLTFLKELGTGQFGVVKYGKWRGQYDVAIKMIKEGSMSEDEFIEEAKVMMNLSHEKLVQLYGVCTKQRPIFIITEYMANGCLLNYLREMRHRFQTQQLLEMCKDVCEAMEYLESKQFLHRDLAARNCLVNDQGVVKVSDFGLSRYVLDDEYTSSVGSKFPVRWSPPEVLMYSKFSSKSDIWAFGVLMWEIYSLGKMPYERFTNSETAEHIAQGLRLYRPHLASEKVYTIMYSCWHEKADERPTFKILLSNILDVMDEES

- compound-smiles: "O=C(CS(=O)(=O)c1ccc(Cl)cc1)N/N=C/c1cc(C(=O)O)c(Nc2ccc(I)cc2F)c(F)c1F"
  IC50: "> 30 µM"

# input for lookup
INPUT: Please supply the value of reported IC50 for the item CS(=O)(=O)c1ccc(CNCc2cc(C(=O)O)c(Nc3ccc(I)cc3F)c(F)c2F)cc1
OUTPUT: > 30 µM

###

inhibition: recorded values
Target: Serine/threonine-protein kinase PAK 4 (Homo sapiens) (UniProt O96013)
Sequence (O96013 whole entry, looked up): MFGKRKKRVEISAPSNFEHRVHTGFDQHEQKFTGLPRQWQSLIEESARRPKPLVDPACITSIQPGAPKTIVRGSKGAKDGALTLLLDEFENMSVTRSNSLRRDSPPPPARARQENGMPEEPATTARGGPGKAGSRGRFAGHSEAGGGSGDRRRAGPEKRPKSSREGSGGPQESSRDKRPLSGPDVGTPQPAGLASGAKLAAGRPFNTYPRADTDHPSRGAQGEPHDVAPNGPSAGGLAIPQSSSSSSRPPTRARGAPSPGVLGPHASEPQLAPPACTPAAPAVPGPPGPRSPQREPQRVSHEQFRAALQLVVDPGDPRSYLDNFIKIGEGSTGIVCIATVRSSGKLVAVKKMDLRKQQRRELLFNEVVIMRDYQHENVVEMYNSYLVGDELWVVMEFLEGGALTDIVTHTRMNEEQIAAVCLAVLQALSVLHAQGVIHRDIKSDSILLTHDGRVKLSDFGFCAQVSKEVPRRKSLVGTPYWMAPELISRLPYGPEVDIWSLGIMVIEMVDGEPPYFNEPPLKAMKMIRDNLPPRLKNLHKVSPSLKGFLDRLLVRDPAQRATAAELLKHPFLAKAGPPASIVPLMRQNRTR
Test: Binding affinity to PAK4 at 10 uM
Give the value in % but do not write % after it.

- compound-smiles: "COCCCNC(=O)N/N=C/c1cc(C(=O)NOCCO)c(Nc2ccc(I)cc2F)c(F)c1F"
  system-under-test: "Serine/threonine-protein kinase PAK 4 (Homo sapiens) (UniProt O96013)"
  inhibition [%]: 0
- compound-smiles: "O=C(NOCCO)c1cc(COCCO)c(F)c(F)c1Nc1ccc(I)cc1F"
  system-under-test: "Serine/threonine-protein kinase PAK 4 (Homo sapiens) (UniProt O96013)"
  inhibition [%]: 22
- compound-smiles: "O=C(NOCCO)c1cc(/C=N/OCCO)c(F)c(F)c1Nc1ccc(I)cc1F"
  system-under-test: "Serine/threonine-protein kinase PAK 4 (Homo sapiens) (UniProt O96013)"
  inhibition [%]: 0
- compound-smiles: "O=C(NOCCO)c1ccc(F)c(F)c1Nc1ccc(I)cc1F"
  system-under-test: "Serine/threonine-protein kinase PAK 4 (Homo sapiens) (UniProt O96013)"
  inhibition [%]: 10
- compound-smiles: "O=C(O)c1ccc(CO/N=C/c2cc(C(=O)NOCCO)c(Nc3ccc(I)cc3F)c(F)c2F)o1"
  system-under-test: "Serine/threonine-protein kinase PAK 4 (Homo sapiens) (UniProt O96013)"
  inhibition [%]: 28

# input for lookup
INPUT: Please supply the value of reported inhibition for the item O=C(O)CCCO/N=C/c1cc(C(=O)NOCCO)c(Nc2ccc(I)cc2F)c(F)c1F
OUTPUT: 33
